subject of test: human CaV3.2 (Homo sapiens)
Construct: expressed in transfected cells
Sequence (O95180 whole entry): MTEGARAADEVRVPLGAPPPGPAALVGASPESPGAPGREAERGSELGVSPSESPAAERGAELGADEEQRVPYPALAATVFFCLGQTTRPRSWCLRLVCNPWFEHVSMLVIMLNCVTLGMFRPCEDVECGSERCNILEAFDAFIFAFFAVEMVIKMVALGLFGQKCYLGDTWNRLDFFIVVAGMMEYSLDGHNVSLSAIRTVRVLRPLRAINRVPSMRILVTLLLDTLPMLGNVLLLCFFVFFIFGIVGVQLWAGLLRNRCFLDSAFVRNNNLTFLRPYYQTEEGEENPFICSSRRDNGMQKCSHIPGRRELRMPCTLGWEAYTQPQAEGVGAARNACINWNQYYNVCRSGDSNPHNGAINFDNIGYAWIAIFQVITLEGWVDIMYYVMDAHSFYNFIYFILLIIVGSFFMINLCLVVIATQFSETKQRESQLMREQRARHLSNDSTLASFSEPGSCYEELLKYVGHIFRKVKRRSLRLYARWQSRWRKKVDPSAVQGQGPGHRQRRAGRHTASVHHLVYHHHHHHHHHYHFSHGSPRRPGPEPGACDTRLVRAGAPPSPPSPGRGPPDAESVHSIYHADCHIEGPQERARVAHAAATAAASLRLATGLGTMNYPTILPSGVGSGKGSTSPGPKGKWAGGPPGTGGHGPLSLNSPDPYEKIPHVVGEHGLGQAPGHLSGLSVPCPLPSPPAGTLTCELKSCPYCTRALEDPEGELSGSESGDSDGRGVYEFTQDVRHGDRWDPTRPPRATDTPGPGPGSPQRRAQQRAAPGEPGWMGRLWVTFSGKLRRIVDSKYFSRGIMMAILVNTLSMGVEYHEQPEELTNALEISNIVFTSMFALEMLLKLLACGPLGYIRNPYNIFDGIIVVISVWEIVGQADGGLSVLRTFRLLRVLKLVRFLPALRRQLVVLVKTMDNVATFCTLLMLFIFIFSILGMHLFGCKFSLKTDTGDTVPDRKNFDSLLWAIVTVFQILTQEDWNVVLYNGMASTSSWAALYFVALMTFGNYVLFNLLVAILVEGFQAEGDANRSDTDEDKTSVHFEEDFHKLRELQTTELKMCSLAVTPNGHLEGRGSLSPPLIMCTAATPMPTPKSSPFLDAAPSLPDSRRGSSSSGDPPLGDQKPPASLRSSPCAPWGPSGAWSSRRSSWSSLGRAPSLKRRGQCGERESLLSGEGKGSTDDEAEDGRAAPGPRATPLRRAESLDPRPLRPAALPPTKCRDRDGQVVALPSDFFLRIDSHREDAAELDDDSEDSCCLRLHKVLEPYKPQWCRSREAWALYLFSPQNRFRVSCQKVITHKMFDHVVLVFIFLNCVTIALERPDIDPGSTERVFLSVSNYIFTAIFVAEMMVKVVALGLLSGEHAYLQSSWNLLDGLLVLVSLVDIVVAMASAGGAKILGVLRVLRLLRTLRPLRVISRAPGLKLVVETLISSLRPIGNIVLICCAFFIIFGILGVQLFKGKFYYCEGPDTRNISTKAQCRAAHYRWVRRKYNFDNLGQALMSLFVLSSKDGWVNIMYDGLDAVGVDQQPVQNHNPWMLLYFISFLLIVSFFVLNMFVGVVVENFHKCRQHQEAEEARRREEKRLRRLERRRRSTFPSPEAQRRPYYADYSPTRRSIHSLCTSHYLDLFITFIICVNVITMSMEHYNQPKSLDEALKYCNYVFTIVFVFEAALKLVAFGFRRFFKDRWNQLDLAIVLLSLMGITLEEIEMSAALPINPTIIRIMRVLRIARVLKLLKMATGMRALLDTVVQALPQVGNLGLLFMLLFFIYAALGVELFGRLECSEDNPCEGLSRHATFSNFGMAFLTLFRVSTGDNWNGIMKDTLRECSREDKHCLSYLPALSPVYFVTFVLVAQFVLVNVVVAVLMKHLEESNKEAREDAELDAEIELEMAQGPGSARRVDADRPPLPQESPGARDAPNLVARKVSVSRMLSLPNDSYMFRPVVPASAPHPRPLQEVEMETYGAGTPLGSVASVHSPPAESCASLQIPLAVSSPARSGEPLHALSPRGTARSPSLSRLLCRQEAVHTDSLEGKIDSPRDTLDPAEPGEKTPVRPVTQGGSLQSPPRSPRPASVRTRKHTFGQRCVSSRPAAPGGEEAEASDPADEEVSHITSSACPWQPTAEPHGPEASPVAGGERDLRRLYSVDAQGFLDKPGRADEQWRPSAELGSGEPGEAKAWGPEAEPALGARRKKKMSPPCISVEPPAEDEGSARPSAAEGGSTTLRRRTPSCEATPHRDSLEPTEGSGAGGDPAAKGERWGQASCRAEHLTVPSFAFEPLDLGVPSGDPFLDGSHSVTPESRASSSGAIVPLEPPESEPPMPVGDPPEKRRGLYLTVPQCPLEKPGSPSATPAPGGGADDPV
protocol text: IonWorks screen for hCaV3.2 (T-type calcium current, voltage clamp)
Format: cell-based
settings: IonWorks HT, HEK cells, 10 min incubation, pulse 10, 8-point curve; read-out: IW hCav3 2 IC50
measurement type: pIC50
Field pIC50 (float): negative decimal logarithm of the concentration in molar.

Output pIC50 of N#Cc1cccc(N2C(=O)C3(CCN(C(=O)Nc4cccc(C(F)(F)F)c4)CC3)C2c2ccccn2)c1 (stereo not shown) [drawing 568]
7.29

Output pIC50 of O=C(Nc1cccc(C(F)(F)F)c1)N1CCC2(CC1)C(=O)N(c1cccc(Cl)c1)C2c1ccccn1 (stereo not shown) [drawing 563]
7.02

Output pIC50 of CC[C@H](C)[C@H](NC(=O)N1CCC2(CC1)C(=O)N(c1cccc(F)c1)C2c1ccc(Cl)cc1)C(=O)OC (single isomer, unassigned)
7.24

Output pIC50 of C[C@@H](NC(=O)N1CCC2(CC1)C(=O)N(c1cccc(F)c1)C2c1ccc(Cl)cc1)c1ccccc1 (stereo partly shown)
6.45

Output pIC50 of C[C@H](NC(=O)N1CCC2(CC1)C(=O)N(c1cncnc1)C2c1ccccn1)c1ccc(F)cc1 (stereo partly shown)
5.70

Output pIC50 of O=C(NCc1ccccc1F)N1CCC2(CC1)C(=O)N(c1cccc(F)c1)C2c1ccc(Cl)cc1 (stereo not shown)
6.57

Output pIC50 of C[C@H](NC(=O)N1CCC2(CC1)C(=O)N(c1cncc(Cl)c1)C2c1ccccn1)c1ccc(F)cc1 (stereo partly shown)
5.49

Output pIC50 of CC[C@H](C)[C@@H](C#N)NC(=O)N1CCC2(CC1)C(=O)N(c1cccc(F)c1)C2c1ccc(Cl)cc1 (stereo partly shown)
7.46

Output pIC50 of N#Cc1cccc(NC(=O)N2CCC3(CC2)C(=O)N(c2cccc(C#N)c2)C3c2ccccn2)c1 (stereo not shown) [drawing 593]
5.54

Output pIC50 of O=C(Nc1cc(F)cc(F)c1)N1CCC2(CC1)C(=O)N(c1cccc(F)c1)C2c1ccc(Cl)cc1 (single isomer, unassigned)
6.41

Output pIC50 of COC(=O)[C@H](C)NC(=O)N1CCC2(CC1)C(=O)N(c1cccc(F)c1)C2c1ccc(Cl)cc1 (stereo partly shown)
6.08

Output pIC50 of CC(NC(=O)N1CCC2(CC1)C(=O)N(c1cccc(F)c1)C2c1ccc(Cl)cc1)c1ccncc1 (stereo not shown)
6.16

Output pIC50 of CCC(C)[C@H](NC(=O)N1CCC2(CC1)C(=O)N(c1ccc(F)c(Cl)c1)C2c1ccc(C#N)cn1)C(=O)OC (stereo partly shown)
6.59

Output pIC50 of CC(C)CN1C(=O)C2(CCN(C(=O)N[C@@H](C)c3ccc(F)cc3)CC2)C1c1ccc(Cl)cc1 (stereo partly shown)
5.74

Output pIC50 of CC(NC(=O)N1CCC2(CC1)C(=O)N(c1cccc(Cl)c1)C2c1ccccn1)c1ccc(F)cc1 (stereo not shown) [drawing 575]
6.13

Output pIC50 of N#Cc1cccc(NC(=O)N2CCC3(CC2)C(=O)N(c2cccc(Cl)c2)C3c2cccnc2)c1 (stereo not shown) [drawing 634]
6.91

---

subject of test: human CaV3.2 (Homo sapiens)
protocol text: IonWorks screen for hCaV3.2 (T-type calcium current, voltage clamp)
settings: IonWorks HT, HEK cells, 10 min incubation, pulse 10, 8-point curve; read-out: IW hCav3 2 IC50
Please respond with reported log10 IC50 for every item in the list.
Parameter value (number): base-10 log of IC50 in nM.

Output log10 IC50 of COC(=O)[C@H](COC(C)(C)C)NC(=O)N1CCC2(CC1)C(=O)N(c1cccc(F)c1)C2c1ccc(Cl)cc1 (stereo partly drawn)
2.40

Output log10 IC50 of CC[C@H](C)[C@H](NC(=O)N1CCC2(CC1)C(=O)N(c1cccc(Cl)c1)C2c1ccccn1)C(=O)OC (stereo partly drawn) [drawing 572]
2.80

Output log10 IC50 of C[C@H](NC(=O)N1CCC2(CC1)C(=O)N(c1ccc(F)c(Cl)c1)C2c1ccc(Br)cn1)c1ccc(F)cc1 (stereo partly drawn)
2.13

Output log10 IC50 of O=C(Nc1cc(F)cc(F)c1)N1CCC2(CC1)C(=O)N(c1cncc(F)c1)C2c1ccccn1 (stereo not drawn)
3.32

Output log10 IC50 of CC(NC(=O)N1CCC2(CC1)C(=O)N(c1cccc(Cl)c1)C2c1ccccn1)c1ccc(F)cc1 (stereo not drawn) [drawing 576]
2.28

Output log10 IC50 of CC[C@H](C)[C@H](NC(=O)N1CCC2(CC1)C(=O)N(c1cccc(Cl)c1)C2c1cccnc1)C(=O)OC (stereo partly drawn) [drawing 641]
3.11

Output log10 IC50 of CCC(C)[C@H](NC(=O)N1CCC2(CC1)C(=O)N(c1ccc(F)c(Cl)c1)C2c1ccc(-c2ccccc2)cn1)C(=O)OC (stereo partly drawn)
1.92

Output log10 IC50 of N#Cc1cccc(N2C(=O)C3(CCN(C(=O)Nc4cccc(C(F)(F)F)c4)CC3)C2c2ccccn2)c1 (stereo not drawn) [drawing 567]
2.57

Output log10 IC50 of O=C(NCc1cccc(F)c1)N1CCC2(CC1)C(=O)N(c1cccc(F)c1)C2c1ccc(Cl)cc1 (stereo not drawn)
2.73

Output log10 IC50 of O=C(Nc1cccc(C(F)(F)F)c1)N1CCC2(CC1)C(=O)N(c1cncc(Cl)c1)C2c1ccccn1 (stereo not drawn) [drawing 562]
2.19

Output log10 IC50 of CC[C@H](C)[C@H](NC(=O)N1CCC2(CC1)C(=O)N(C(C)C)C2c1ccc(Br)cc1)C(=O)OC (stereo partly drawn)
2.44

Output log10 IC50 of CC[C@H](C)[C@H](NC(=O)N1CCC2(CC1)C(=O)N(c1ccccc1S(C)(=O)=O)C2c1ccc(Cl)cc1)C(=O)OC (stereo partly drawn)
2.04

Output log10 IC50 of CCC(C)[C@H](NC(=O)N1CCC2(CC1)C(=O)N(c1ccc(F)c(Cl)c1)C2c1ccc(-c2cccnc2)cn1)C(=O)OC (stereo partly drawn)
2.76

Output log10 IC50 of N#Cc1cccc(N2C(=O)C3(CCN(C(=O)Nc4cc(F)cc(F)c4)CC3)C2c2ccccn2)c1 (stereo not drawn) [drawing 585]
2.86

Output log10 IC50 of C[C@H](NC(=O)N1CCC2(CC1)C(=O)N(c1cncnc1)C2c1ccc(Cl)cc1)c1ccc(F)cc1 (stereo partly drawn)
3.37
